Molecular target: Cannabinoid receptor 2 (Homo sapiens, UniProt P34972)
Sequence (P34972 whole entry): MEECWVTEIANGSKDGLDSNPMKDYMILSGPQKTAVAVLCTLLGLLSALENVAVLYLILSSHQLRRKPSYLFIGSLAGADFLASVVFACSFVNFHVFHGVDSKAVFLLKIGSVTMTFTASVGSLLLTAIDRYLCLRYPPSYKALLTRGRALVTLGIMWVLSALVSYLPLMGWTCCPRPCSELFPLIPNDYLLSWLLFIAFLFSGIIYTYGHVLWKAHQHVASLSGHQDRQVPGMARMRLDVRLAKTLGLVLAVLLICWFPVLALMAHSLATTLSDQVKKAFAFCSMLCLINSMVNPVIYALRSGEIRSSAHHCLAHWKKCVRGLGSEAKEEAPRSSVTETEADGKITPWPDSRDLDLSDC
Experiment: Displacement of [3H]CP-55940 from human recombinant CB2 receptor expressed in HEK293 cells
Assay type: cell-based
Settings: read-out: pKi (converted)
Here the recorded Ki is given for each entry.
Give just the numeric value; nM need not be written.

IN: Look at this molecule and give its reported Ki. CC1(C)C(C(=O)c2cn(CC3CCOC3)c3ccccc23)C1(C)C (centres undefined)
OUT: 0.49

IN: # Ki lookup, item CC1(C)C(C(=O)c2cn(CCN3CCCC3=O)c3ccccc23)C1(C)C
OUT: 53.7

====

Each entry below carries its reported Activity.
Target: Cannabinoid receptor 2 (Homo sapiens)
Test: Agonist activity at human recombinant CB2 receptor expressed in HEK293 cells coexpressing Galphaq/o5 assessed as calcium mobilization by FLIPR assay relative to CP-55940
Format: functional, cell-based
Express it in %; write the number only.

Molecule | U | Observed
CC1(C)C(C(=O)c2cn(CCN3CCCCCC3)c3ccccc23)C1(C)C | % | 49
CC(=O)CCCCn1cc(C(=O)C2C(C)(C)C2(C)C)c2ccccc21 | % | 89
CC1(C)C(C(=O)c2cn(CCCCCO)c3ccccc23)C1(C)C | % | 79
CC1(C)C(C(=O)c2cn(C[C@@H]3CCCO3)c3ccccc23)C1(C)C | % | 117
CC1(C)C(C(=O)c2cn(CCC(N)=O)c3ccccc23)C1(C)C | % | 107

IN: Recorded Activity of CC1(C)C(C(=O)c2cn(CCCCO)c3ccccc23)C1(C)C , please.
OUT: 105

IN: Item under review: CC1(C)C(C(=O)c2cn(CCCC(F)(F)F)c3ccccc23)C1(C)C . Reported Activity?
OUT: 104

IN: What does the data say about its Activity? Entry: CC1(C)C(C(=O)c2cn(CCC3CCOCC3)c3ccccc23)C1(C)C
OUT: 90

IN: Which value of Activity has been reported for O=C(c1cn(CCN2CCOCC2)c2ccccc12)C12CC3CC(CC1C3)C2 in the records?
OUT: 66

IN: Which measured Activity value corresponds to CC1(C)C(C(=O)c2cn(CCN3CCCCC3)c3ccccc23)C1(C)C ?
OUT: 93

IN: Which Activity is listed for CC1(C)C(C(=O)c2cn(CCN3CCCC3=O)c3ccccc23)C1(C)C ?
OUT: 97

IN: Need Activity, item O=C(c1cn(CCN2CCOCC2)c2ccccc12)[C@@H]1CC12CCCCC2
OUT: 50

IN: Reported Activity, molecule CCCn1cc(C(=O)C2C(C)(C)C2(C)C)c2ccccc21 : ____
OUT: 114

IN: Activity for CC1(C)C(C(=O)c2cn(CCO)c3ccccc23)C1(C)C ?
OUT: 85

====

Molecular target: Cannabinoid receptor 2 (Homo sapiens, UniProt P34972)
Assay: Agonist activity at human recombinant CB2 receptor expressed in HEK293 cells coexpressing Galphaq/o5 assessed as calcium mobilization by FLIPR assay relative to CP-55940
Assay type: functional, cell-based
Result Type: Activity (%)
Hi! Could you send only the number? It should be in %, unit omitted.

Example molecules with recorded Activity:
Molecule | U | Observed
CC1(C)C(C(=O)c2cn(C[C@H]3CCCO3)c3ccccc23)C1(C)C | % | 99
CC1(C)C(C(=O)c2cn(CCc3cccs3)c3ccccc23)C1(C)C | % | 86
CC1(C(=O)c2cn(CCN3CCOCC3)c3ccccc23)CC1(Cl)Cl (stereo unspecified) | % | 33
CN(C)CCn1cc(C(=O)C2C(C)(C)C2(C)C)c2ccccc21 | % | 105
CC1(C)C(C(=O)c2cn(CCc3ccncc3)c3ccccc23)C1(C)C | % | 100
O=C(c1cn(CCN2CCOCC2)c2ccccc12)C1CCCC1 | % | 35
CC1(C(=O)c2cn(CC3CCOCC3)c3ccccc23)CC1(Cl)Cl (stereo unspecified) | % | 32
CC1(C)C(C(=O)c2cn(CCCO)c3ccccc23)C1(C)C | % | 140

IN: Checklist item: Activity tested on Cannabinoid receptor 2 (Homo sapiens, UniProt P34972), entry CC1(C)C(C(=O)c2cn(CCN3CCOC3=O)c3ccccc23)C1(C)C , value?
OUT: 81

IN: # query: Activity | item CC1(C)C(C(=O)c2cn(CCN3CCNCC3)c3ccccc23)C1(C)C | system: Cannabinoid receptor 2 (Homo sapiens, UniProt P34972)
OUT: 30

IN: Lab note: need Activity with Cannabinoid receptor 2 (Homo sapiens, UniProt P34972) for entry O=C(c1cn(CC2CCOCC2)c2ccccc12)C12CC3CC(CC(C3)O1)C2 , please look it up.
OUT: 97

====

Molecular target: Cannabinoid receptor 1 (Rattus norvegicus)
Sequence (P20272 whole entry): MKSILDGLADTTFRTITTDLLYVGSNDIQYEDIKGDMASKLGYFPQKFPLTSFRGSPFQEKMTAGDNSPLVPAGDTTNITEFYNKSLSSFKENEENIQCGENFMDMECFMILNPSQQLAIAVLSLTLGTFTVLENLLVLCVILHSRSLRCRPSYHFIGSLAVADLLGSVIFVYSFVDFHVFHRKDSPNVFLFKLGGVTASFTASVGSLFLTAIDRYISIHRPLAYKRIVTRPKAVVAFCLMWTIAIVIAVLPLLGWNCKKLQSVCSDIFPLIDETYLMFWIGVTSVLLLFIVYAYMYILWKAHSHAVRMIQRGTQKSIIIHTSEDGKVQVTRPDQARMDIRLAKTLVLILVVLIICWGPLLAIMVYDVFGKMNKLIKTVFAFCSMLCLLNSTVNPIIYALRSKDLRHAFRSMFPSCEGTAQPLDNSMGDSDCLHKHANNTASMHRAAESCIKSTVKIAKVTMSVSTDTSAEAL
Assay: Agonist activity at rat CB1 receptor assessed as inhibition of forskolin-induced cAMP production by cell based assay
Measured EC50 accompanies every entry in the list below.
Report the figure in nM without appending any unit label.

Smiles Repr | EC50 [nM]
CC1(C)C(C(=O)c2cn(CCCCO)c3ccccc23)C1(C)C | 2080

Turning to the following compound.
IN: State its EC50 on Cannabinoid receptor 1 (Rattus norvegicus): CC1(C)C(C(=O)c2cn(CCN3CCOCC3)c3ccccc23)C1(C)C
OUT: 248

====

Target: UniProt:P21554
Sequence (P21554 whole entry): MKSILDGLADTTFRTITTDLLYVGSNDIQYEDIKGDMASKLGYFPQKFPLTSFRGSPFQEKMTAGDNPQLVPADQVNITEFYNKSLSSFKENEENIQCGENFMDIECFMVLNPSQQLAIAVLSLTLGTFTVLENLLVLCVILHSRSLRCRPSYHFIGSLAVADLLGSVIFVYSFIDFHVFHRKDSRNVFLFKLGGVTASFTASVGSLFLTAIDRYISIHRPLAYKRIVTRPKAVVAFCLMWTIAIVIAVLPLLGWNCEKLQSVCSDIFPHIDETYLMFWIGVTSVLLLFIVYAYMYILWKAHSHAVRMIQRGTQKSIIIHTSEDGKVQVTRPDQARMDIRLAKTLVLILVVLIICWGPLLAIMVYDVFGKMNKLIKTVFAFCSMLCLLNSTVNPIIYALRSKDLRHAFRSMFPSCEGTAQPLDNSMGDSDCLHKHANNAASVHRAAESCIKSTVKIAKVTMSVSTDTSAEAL
Assay: Displacement of [3H]CP-55940 from human recombinant CB1 receptor expressed in CHO cells
Type: cell-based
Settings: read-out: Ki
pKi: −log10 of the molar value.
Label rule, in plain words: pKi of 6 and up is 1, under 6 is -1.

Molecule | Class Assignment
CC1(C)C(C(=O)c2cn(Cc3ccncc3)c3ccccc23)C1(C)C | 1
CC1(C)C(C(=O)c2cn(CCc3ccncc3)c3ccccc23)C1(C)C | -1
CC1(C)C(C(=O)c2cn(CCN3CCCC3=O)c3ccccc23)C1(C)C | -1

In the following, a different molecule is considered.
IN: Does CC1(C)C(C(=O)c2cn(CCc3ccsc3)c3ccccc23)C1(C)C have a reported pKi of at least 6?
OUT: 1

====

Target: Cannabinoid receptor 2 (Homo sapiens)
Assay: Displacement of [3H]CP-55940 from human recombinant CB2 receptor expressed in HEK293 cells
Format: cell-based
Conditions: hek293; read-out: Ki
pKi: −log10 of the molar value.
// reported pKi per item

Smiles Repr | pKi
O=C(c1cn(CCN2CCOCC2)c2ccccc12)C1CCCC1 | < 6.00

Proceeding to the next compound to report its pKi.
IN: I'd like to know its pKi. The compound in question is O=C(c1cn(CCN2CCOCC2)c2ccccc12)C1CCC1
OUT: < 6.00

====

List of Ratio Ki values.
Species on record: Homo sapiens
Test: Selectivity ratio of Ki for human recombinant CB1 receptor to Ki for human recombinant CB2 receptor
// return a plain number; no unit text

Recorded results for 4 molecules are shown here.
Molecule | Ratio Ki
CC1(C)C(C(=O)c2cn(CCN3CCOC3=O)c3ccccc23)C1(C)C | 1940
O=C(c1cn(CCN2CCOCC2)c2ccccc12)C1CCCCCC1 | 33
CC1(C)C(C(=O)c2cn(CCC3CCOCC3)c3ccccc23)C1(C)C | 33
COCCn1cc(C(=O)C2C(C)(C)C2(C)C)c2ccccc21 | 229

IN: # get_value(readout='Ratio Ki', item= CN1CCCCC1Cn1cc(C(=O)C2C(C)(C)C2(C)C)c2ccccc21 (configuration not stated) )
OUT: 11

IN: For O=C(c1cn(CC2CCOCC2)c2ccccc12)C1CCCC1 , what is its reported Ratio Ki?
OUT: 12

IN: Form field: reported Ratio Ki of CC1(C)C(C(=O)c2cn(CC3OCCO3)c3ccccc23)C1(C)C
OUT: 280

IN: Using the record for O=C(c1cn(CC2CCOCC2)c2ccccc12)C12CC3CC(CC(C3)O1)C2 , report its Ratio Ki.
OUT: 91

====

Molecular target: Cannabinoid receptor 2 (Homo sapiens, UniProt P34972)
Test: Agonist activity at human recombinant CB2 receptor expressed in HEK293 cells assessed as inhibition of forskolin-induced cAMP production relative to CP-55940
Assay type: functional, cell-based
Set-up: scale not given: the % may be the effect or the level left
Result Type: Activity (%)
The figure you give is taken to be in %; do not add the unit.

Smiles Repr | Observed
CC1(C)C(C(=O)c2cn(CC3CCOCC3)c3ccccc23)C1(C)C | 103
CC1(C)C(C(=O)c2cn(CCCCO)c3ccccc23)C1(C)C | 100
CC1(C)C(C(=O)c2cn(CCN3CCOCC3)c3ccccc23)C1(C)C | 78

Please turn your attention to the following entry.
IN: Recorded Activity for CC1(C)C(C(=O)c2cn(CCN3CCOC3=O)c3ccccc23)C1(C)C , please?
OUT: 114

====

Molecular target: UniProtKB Q9QZN9
Sequence (Q9QZN9 whole entry): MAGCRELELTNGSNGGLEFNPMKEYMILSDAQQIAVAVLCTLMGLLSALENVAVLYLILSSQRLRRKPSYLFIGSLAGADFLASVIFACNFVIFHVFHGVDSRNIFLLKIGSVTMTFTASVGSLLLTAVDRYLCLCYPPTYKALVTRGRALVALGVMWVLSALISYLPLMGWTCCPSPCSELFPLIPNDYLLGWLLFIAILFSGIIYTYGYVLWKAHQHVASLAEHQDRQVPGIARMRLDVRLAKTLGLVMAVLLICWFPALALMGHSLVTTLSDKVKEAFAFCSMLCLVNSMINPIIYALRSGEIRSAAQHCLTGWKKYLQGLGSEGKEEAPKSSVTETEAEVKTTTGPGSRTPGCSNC
Experiment: Agonist activity at rat CB2 receptor assessed as inhibition of forskolin-induced cAMP production by cell based assay relative to CP-55940
Assay type: functional
Parameters: concentration or dose not given beside the values
Recorded Activity for the following compounds
Output spec: scalar in %, unitless text.

IN: Please look up its Activity: CC1(C)C(C(=O)c2cn(CCN3CCOCC3)c3ccccc23)C1(C)C
OUT: 70
